Values compiled from patent US11844785B2.

# Target: wildtype human CFTR (WT-hCFTR) (Homo sapiens)
# Construct: expressed in transfected cells; host or cells: Xenopus laevis oocytes injected with cRNA (hCFTR/pGEMHE, gift of D. Gadsby)
# Sequence (P13569 whole entry): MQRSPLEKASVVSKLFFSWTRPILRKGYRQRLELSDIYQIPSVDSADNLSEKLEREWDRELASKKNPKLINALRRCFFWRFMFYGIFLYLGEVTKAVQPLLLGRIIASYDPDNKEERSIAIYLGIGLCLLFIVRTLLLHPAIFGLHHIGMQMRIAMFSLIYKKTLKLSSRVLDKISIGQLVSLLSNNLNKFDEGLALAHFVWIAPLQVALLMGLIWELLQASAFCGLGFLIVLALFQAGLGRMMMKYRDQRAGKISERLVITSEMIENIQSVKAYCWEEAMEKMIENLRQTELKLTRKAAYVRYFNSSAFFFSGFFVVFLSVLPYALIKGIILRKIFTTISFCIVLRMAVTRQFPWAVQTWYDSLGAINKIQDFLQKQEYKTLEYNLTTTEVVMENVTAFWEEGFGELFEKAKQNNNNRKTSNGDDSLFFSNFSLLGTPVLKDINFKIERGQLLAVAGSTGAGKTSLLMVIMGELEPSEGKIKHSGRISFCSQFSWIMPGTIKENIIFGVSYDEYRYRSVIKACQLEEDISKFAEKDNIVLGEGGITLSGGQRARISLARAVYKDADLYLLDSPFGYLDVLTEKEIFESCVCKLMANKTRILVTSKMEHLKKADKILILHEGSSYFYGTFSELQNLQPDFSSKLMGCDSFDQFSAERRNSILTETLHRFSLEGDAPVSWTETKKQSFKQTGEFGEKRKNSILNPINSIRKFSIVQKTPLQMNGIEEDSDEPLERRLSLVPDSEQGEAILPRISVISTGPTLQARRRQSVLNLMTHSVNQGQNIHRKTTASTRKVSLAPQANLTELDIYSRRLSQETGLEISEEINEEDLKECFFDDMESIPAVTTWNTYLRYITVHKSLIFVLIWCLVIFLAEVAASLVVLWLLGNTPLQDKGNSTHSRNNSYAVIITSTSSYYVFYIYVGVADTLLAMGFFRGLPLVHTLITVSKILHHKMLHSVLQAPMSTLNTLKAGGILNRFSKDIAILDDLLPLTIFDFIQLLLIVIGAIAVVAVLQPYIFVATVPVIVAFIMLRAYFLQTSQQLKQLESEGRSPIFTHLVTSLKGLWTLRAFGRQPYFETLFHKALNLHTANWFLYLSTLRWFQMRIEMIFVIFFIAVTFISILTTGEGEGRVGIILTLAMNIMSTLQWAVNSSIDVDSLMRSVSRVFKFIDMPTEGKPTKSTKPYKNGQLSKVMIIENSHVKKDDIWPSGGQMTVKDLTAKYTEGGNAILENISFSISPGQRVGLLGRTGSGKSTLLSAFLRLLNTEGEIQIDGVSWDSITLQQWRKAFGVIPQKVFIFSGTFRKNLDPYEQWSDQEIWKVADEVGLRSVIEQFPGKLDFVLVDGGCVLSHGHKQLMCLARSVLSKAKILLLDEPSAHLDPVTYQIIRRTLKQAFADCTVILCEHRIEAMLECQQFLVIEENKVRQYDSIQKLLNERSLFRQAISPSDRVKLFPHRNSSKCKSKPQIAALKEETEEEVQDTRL
# Assay: Two-electrode voltage clamp (TEVC) on Xenopus oocytes expressing WT-hCFTR
# Type: cell-based
# Cond: FIG. 2A; potentiation component; read-out: Kd of potentiation of WT-hCFTR

{"Smiles Notation": "O=C(NCc1ccc(Oc2ccccc2)cc1)c1nc(-c2cc(Br)c(O)c(Br)c2)no1", "Kd": "0.64 nM"}
